Entry source: patent US12552800B2

biological target: PD brain-derived a-syn aggregates (Homo sapiens, UniProt P37840); construct: from tissue; host or cells: human PD donor brain, sarkosyl-insoluble 100,000 x g pellet; experiment: Micro-radiobinding competition assay against Example-1 [^3H-1] (Table 8); type: binding; conditions: 100 nM non-radiolabelled example compound vs Example-1 [^3H-1] ligand; human PD brain-derived a-syn aggregates
Use Condition met when the recorded Competition at 100 nM (%) is no lower than 60%; use Condition not met when it is lower.

Does Cc1c2c(nn1-c1ccc(N3CCCC3)nc1)CN(c1cccc(F)n1)C2=O [Example 144] have a reported Competition at 100 nM (%) of at least 60%?
Condition not met

In plain terms: is recorded Competition at 100 nM (%) at least 60% for CC(C)Oc1ccc(-n2cc3c(n2)CN(c2cccc(F)n2)C3=O)cn1 [Example 160] ?
Condition not met

Please tell me: is the molecule O=C1c2cn(-c3ccc(N4CC[C@@H](F)C4)nc3)nc2CN1c1ncco1 [Example 137] at or over 60% in terms of Competition at 100 nM (%)?
Condition not met

Determine whether measured Competition at 100 nM (%) meets or exceeds 60% for CC(C)n1cc(N2Cc3nn(-c4ccc(N5CC[C@@H](F)C5)nc4)cc3C2=O)cn1 [Example 117]
Condition not met

Evaluate Cc1ccccc1N1Cc2nn(-c3ccc(N4CC[C@H](F)C4)nc3)cc2C1=O [Example 32] : Competition at 100 nM (%) at minimum 60%?
Condition not met

Quick check: does O=C1c2cn(-c3ccc(N4CC[C@H](F)C4)nc3)nc2CN1c1cc(O)ccn1 [Example 170] have Competition at 100 nM (%) greater than or equal to 60%?
Condition met

Given the entry Cl.O=C1c2cn(-c3ccc(N4CCCC4)nc3)nc2CN1c1ccc(F)nc1 [Example 49] , answer whether its Competition at 100 nM (%) meets or surpasses 60%.
Condition not met

Is Competition at 100 nM (%) at least 60%? Consider O=C1c2cn(-c3ccc(N4CC[C@@H](F)C4)nc3)nc2CN1c1ccccc1O [Example 175]
Condition not met

Would you say Cn1ccc(-n2cc3c(n2)CN(c2cccc(F)n2)C3=O)n1 [Example 145] shows Competition at 100 nM (%) at minimum 60%?
Condition not met

Is the recorded value of Competition at 100 nM (%) equal to or greater than 60% for this molecule? Cn1ccc(N2Cc3nn(-c4ccc(N5CC[C@@H](F)C5)nc4)cc3C2=O)n1 [Example 116]
Condition met

Item O=C1c2cn(-c3ccc(N4CC[C@@H](F)C4)nc3)nc2CN1c1ccncc1 [Example 2] with Competition at 100 nM (%) of 60% or above?
Condition met

Is it the case that O=C1c2cn(-c3ccc(N4CC[C@H](F)C4)nc3)nc2CN1c1cccc(F)c1 [Example 70] has Competition at 100 nM (%) reaching or exceeding 60%?
Condition met

Quick check: does Cc1ccc(N2Cc3nn(-c4ccc(N5CC[C@H](F)C5)nc4)cc3C2=O)nc1 [Example 112] have Competition at 100 nM (%) greater than or equal to 60%?
Condition met

Assess whether reported Competition at 100 nM (%) for Cn1cc(N2Cc3nn(-c4ccc(N5CCC[C@@H](F)C5)nc4)cc3C2=O)cn1 [Example 120] sits at 60% or higher.
Condition not met

Textbook exercise: given the entry N#Cc1ccnc(N2Cc3nn(-c4ccc(N5CC[C@@H](F)C5)nc4)cc3C2=O)c1 [Example 86] , state whether its Competition at 100 nM (%) is greater than or equal to 60%.
Condition met

Determine whether this molecule has Competition at 100 nM (%) no lower than 60%: Nc1ccc(N2Cc3nn(-c4ccc(N5CCCC5)nc4)cc3C2=O)cc1F [Example 50]
Condition met

Determine whether this molecule has Competition at 100 nM (%) no lower than 60%: O=C1c2cn(-c3ccc(F)cn3)nc2CN1c1cccnc1 [Example 138]
Condition not met

Kindly determine if Competition at 100 nM (%) recorded for Cc1c2c(nn1-c1ccc(N3CC[C@@H](F)C3)nc1)CN(c1cnn(C)c1)C2=O [Example 96] is above or exactly 60%.
Condition not met

Could you tell me if the measured Competition at 100 nM (%) of COc1ccnc(N2Cc3nn(-c4ccc(N5CC[C@H](F)C5)nc4)cc3C2=O)c1 [Example 77] reaches 60% or more?
Condition met

Given the entry Cc1cccc(N2Cc3nn(-c4ccc(N5CC[C@@H](F)C5)nc4)cc3C2=O)c1 [Example 61] , answer whether its Competition at 100 nM (%) meets or surpasses 60%.
Condition not met

Is it the case that COc1ccnc(N2Cc3nn(-c4ccc(N5CC[C@@H](F)C5)nc4)cc3C2=O)c1 [Example 76] has Competition at 100 nM (%) reaching or exceeding 60%?
Condition met

Competition at 100 nM (%) >= 60% for Cc1c2c(nn1-c1ccc(N3CC[C@@H](F)C3)nc1)CN(c1ccncc1)C2=O [Example 94] ?
Condition not met

Item O=C1c2cn(-c3ccc(N4CCCC4)nc3)nc2CN1c1cnn(CCF)c1 [Example 129] with Competition at 100 nM (%) of 60% or above?
Condition not met

Kindly determine if Competition at 100 nM (%) recorded for N#Cc1ccc(-n2cc3c(n2)CN(c2cncc(F)n2)C3=O)cn1 [Example 155] is above or exactly 60%.
Condition not met

Determine whether measured Competition at 100 nM (%) meets or exceeds 60% for Cc1c2c(nn1-c1ccc(N3CC[C@@H](F)C3)nc1)CN(c1cccnc1)C2=O [Example 52]
Condition not met
